B1: TOR1AIP2 (parent)
chain: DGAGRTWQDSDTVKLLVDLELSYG

# Variants of: B1
# EXPERIMENTAL PROTOCOL: protein stability index of a GFP-peptide fusion (GPS, HEK-293T) (PSI 1-6); higher = more stable;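 note: lentivirally expressed fusions sorted by FACS into six bins by GFP to DsRed ratio, PSI derived from sequencing read proportions per bin multiplied by bin number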
# RECORDED CONDITIONS: c terminus: a fixed tail appended
OBSERVED PROPERTY: protein stability index
Enter the number alone.

Worked examples, 10 variants total:
V17L | 2.34
Q8D | 1.24
D18N | 1.8
T12F | 1.4
L21K | 2.02
E20G | 2.13
R5W | 2.76
S22D | 2.51
G24T | 1.73
T6W | 1.1

Record G2P , field protein stability index: 2.31

Record T12Y , field protein stability index: 1.49

Record V17Q , field protein stability index: 3.97

Record L21P , field protein stability index: 3.99

Record E20S , field protein stability index: 1.75

Record L16G , field protein stability index: 3.57
